Origin of the recorded values: patent US11242361B2

pIC50: −log10 of the molar value.
The next entries give measured pIC50 for UniProtKB P54578.

compound-structure-string: Cc1c(C(=O)CN2CCN(C)CC2)c2ncc(Br)cc2n1-c1ccc(C#N)cc1
reading: < 5.30
--
compound-structure-string: Cc1c(C(=O)CN2CCC(CO)CC2)c2ncc(Br)cc2n1-c1ccc(C#N)cc1
reading: 5.30 to 6.30
--
compound-structure-string: Cc1c(C(=O)CN2CCC(O)CC2)c2ccccc2n1-c1ccc(F)cc1
reading: > 6.30

Give pIC50 for each listed item.
1. COc1cc2c(C(=O)CN3CCCCC3)c(C)n(-c3ccc(C#N)cc3)c2cc1OC(F)(F)F
2. Cc1c(C(=O)CN2CCCC[C@@H]2C)c2ncc(Br)cc2n1-c1ccc(C#N)cc1
3. O=C(CN1CCCCC1)c1cn(-c2ccc(Cl)cc2)c2cc(CO)ccc12
4. Cc1ccc2c(C(=O)CN3CCCCC3)c(C)n(-c3ccc(C#N)cc3)c2c1
5. CCOC(=O)CC1CCN(CC(=O)c2c(C)n(-c3ccc(C#N)cc3)c3cc(Br)cnc23)CC1

Result block:
1. 5.30 to 6.30
2. > 6.30
3. < 5.30
4. > 6.30
5. 5.30 to 6.30

====

The next entries give measured IC50 for USP14 (Homo sapiens (Human), UniProt P54578).

Recorded results for 3 molecules are shown here.
compound-structure-string: CC(=O)N(C)c1ccc2c(c1)c(C(=O)CN1CCCCC1)c(C)n2-c1ccc(C#N)cc1
IC50: < 500 nM

compound-structure-string: Cc1c(C(=O)CN2CCCCC2)c2ccc(C(C)C)cc2n1-c1ccc(C#N)cc1
IC50: < 500 nM

compound-structure-string: COc1cnc2c(C(=O)CN3CCC(CN)CC3)c(C)n(-c3ccc(C#N)cc3)c2c1
IC50: < 500 nM

In the following, a different molecule is considered.
Query block: Dear colleague, I am looking for the recorded IC50 of the following molecule: "Cc1c(C(=O)CN2CCC(O)CC2)c2ccccc2n1-c1cccnc1"
Result block: > 5000 nM

====

- tested-on: USP14 (Homo sapiens (Human), UniProt P54578)
- Sequence (P54578 whole entry, looked up): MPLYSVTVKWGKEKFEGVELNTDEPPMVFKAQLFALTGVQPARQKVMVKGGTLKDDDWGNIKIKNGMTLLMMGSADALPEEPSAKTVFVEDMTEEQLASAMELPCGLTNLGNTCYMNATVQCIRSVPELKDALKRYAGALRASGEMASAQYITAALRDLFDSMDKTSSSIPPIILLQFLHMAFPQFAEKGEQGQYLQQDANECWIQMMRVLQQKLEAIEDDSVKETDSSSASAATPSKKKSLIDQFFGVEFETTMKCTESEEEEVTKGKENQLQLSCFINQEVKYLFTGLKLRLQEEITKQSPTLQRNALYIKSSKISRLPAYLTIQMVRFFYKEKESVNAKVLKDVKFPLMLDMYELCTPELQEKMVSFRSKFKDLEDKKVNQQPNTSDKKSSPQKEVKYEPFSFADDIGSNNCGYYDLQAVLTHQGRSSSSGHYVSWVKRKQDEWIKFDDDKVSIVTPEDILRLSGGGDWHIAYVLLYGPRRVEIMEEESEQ
- test: USP14 Inhibition Assay
- Assay type: biochemical
- measurement-parameters: average value from a minimum of two experimental determinations, read-out: IC50 Category
assay-endpoint: IC50

Recorded results for 5 molecules are shown here.
compound-structure-string: CCNC(=O)Cc1cnc2c(C(=O)CN3CCCCC3)c(C)n(-c3ccc(C#N)cc3)c2c1
assay-endpoint: IC50
reading: < 500 nM

compound-structure-string: O=C(CN1CCC(O)CC1)c1cn(-c2ccc(Cl)cc2)c2ccccc12
assay-endpoint: IC50
reading: > 5000 nM

compound-structure-string: COc1ccc2c(C(=O)CN3CCCCC3)c(C)n(-c3ccc(Cl)cc3)c2c1
assay-endpoint: IC50
reading: < 500 nM

compound-structure-string: Cc1c(C(=O)CN2CCC(O)CC2)c2ncccc2n1-c1ccc(C#N)cc1
assay-endpoint: IC50
reading: < 500 nM

compound-structure-string: Cc1c(C(=O)CN2CCCCC2)c2c(F)cccc2n1-c1ccc(C#N)cc1
assay-endpoint: IC50
reading: < 500 nM

Give IC50 for each listed item.
1. CNc1ccc2c(c1)c(C(=O)CN1CCCCC1)c(C)n2-c1ccc(C#N)cc1
2. CCN(CC)C(=O)CCc1cc2c(nc1C)c(C(=O)CN1CCCCC1)c(C)n2-c1ccc(C#N)cc1
3. Cc1c(C(=O)CN2CC=CC2)c2ncc(Br)cc2n1-c1ccc(C#N)cc1
4. Cc1c(C(=O)CN2[C@@H](C)CCC[C@@H]2C)c2ncc(Br)cc2n1-c1ccc(C#N)cc1
5. COc1ccc2c(n1)c(C(=O)CN1CCCCC1)c(C)n2-c1ccc(C#N)cc1
6. Cc1c(C(=O)CN2CCCCC2)c2cccc(F)c2n1-c1ccc(C#N)cc1

Result block:
< 500 nM
< 500 nM
< 500 nM
500 to 5000 nM
< 500 nM
< 500 nM

====

The next entries give measured IC50 for USP14 (Homo sapiens (Human), UniProt P54578).

Give IC50 for each listed item.
1. Cc1c(C(=O)CN2CCCCC2)c2ccc(CCC(N)=O)cc2n1-c1ccc(C#N)cc1 [Compound 194]
2. Cc1c(C(O)CN2CCCCC2)c2ccc(CO)cc2n1-c1ccc(Cl)cc1 (centres unmarked) [Compound 130]
3. Cc1c(C(=O)CN2CCC[C@@H]2C)c2ncc(Br)cc2n1-c1ccc(C#N)cc1 [Compound 307]
4. Cc1c(C(=O)CN2CCCCC2)c2cc(F)ccc2n1-c1ccc(Cl)cc1 [Compound 98]

Result block:
1. < 500 nM
2. > 5000 nM
3. < 500 nM
4. < 500 nM

Give IC50 for each listed item.
1. Cc1c(C(=O)CN2CCC(O)(C(F)(F)F)CC2)c2ccccc2n1-c1ccc(Cl)cc1 [Compound 390]
2. Cc1c(C(=O)CN2CCCCC2)c2nc(F)ccc2n1-c1ccc(Cl)cc1 [Compound 173]
3. Cc1c(C(=O)CN2CCCCC2)c2ccc(CN)cc2n1-c1ccc(Cl)cc1 [Compound 185]
4. CC(=O)NCc1ccc2c(c1)c(C(=O)CN1CCCCC1)c(C)n2-c1ccc(C#N)cc1 [Compound 183]
5. CCN(C)C(=O)Cc1cnc2c(C(=O)CN3CCCCC3)c(C)n(-c3ccc(C#N)cc3)c2c1 [Compound 382]
6. CC(=O)OCc1ccc2c(C(=O)CN3CCCCC3)cn(-c3ccc(Cl)cc3)c2c1 [Compound 118]
7. O=C(CN1CCCCC1)c1c(O)n(-c2ccc(Cl)cc2)c2ccccc12 [Compound 131]

Result block:
1: > 5000 nM; 2: < 500 nM; 3: < 500 nM; 4: < 500 nM; 5: < 500 nM; 6: > 5000 nM; 7: > 5000 nM

Give IC50 for each listed item.
1. COc1cnc2c(C(=O)CN3CCC(O)CC3)c(C)n(-c3ccc(C#N)cc3)c2c1 [Compound 339]
2. COc1cnc2c(C(=O)CN3CCCCC3)c(C)n(-c3ccc(C#N)cc3)c2c1 [Compound 326]
3. Cc1c(C(=O)CN2CCCCC2)c2ncc(CC(=O)N3CCCC3)cc2n1-c1ccc(C#N)cc1 [Compound 298]

Result block:
["< 500 nM", "< 500 nM", "< 500 nM"]

Give IC50 for each listed item.
1. Cc1c(C(=O)CN2CCCCC2)c2nc(O)ccc2n1-c1ccc(C#N)cc1 [Compound 127]
2. Cc1c(C(=O)CN2CCCCC2)c2ccc(CO)cc2n1-c1ccc(Cl)cc1 [Compound 182]
3. COc1ccc2c(c1)c(C(=O)CN1CCCCC1)c(C)n2-c1ccc(Cl)cc1 [Compound 155]

Result block:
1. > 5000 nM
2. < 500 nM
3. < 500 nM

====

Counter-ions that a name gives are not always drawn.
The next entries give measured IC50 for USP14 (Homo sapiens (Human), UniProt P54578).

Recorded results for 10 compounds are shown here.
compound: Cc1c(C(=O)CN2CCC(O)CC2)c2ccccc2n1-c1ncc(Cl)cn1
tested-on: USP14 (Homo sapiens (Human), UniProt P54578)
IC50: > 5000 nM
//
compound: Cc1c(C(=O)CN2CCCCC2)c2ccccc2n1-c1ccc([N+](=O)[O-])cc1
tested-on: USP14 (Homo sapiens (Human), UniProt P54578)
IC50: < 500 nM
//
compound: COc1cccc2c(C(=O)CN3CCCCC3)c(C)n(-c3ccc(C#N)cc3)c12
tested-on: USP14 (Homo sapiens (Human), UniProt P54578)
IC50: 500 to 5000 nM
//
compound: Cc1c(C(=O)CN2CCCCC2)c2ncc(CCN3CCCC3)cc2n1-c1ccc(Cl)cc1
tested-on: USP14 (Homo sapiens (Human), UniProt P54578)
IC50: < 500 nM
//
compound: Cc1c(C(=O)CN2CCC(NC(=O)c3ccc(N=[N+]=[N-])cc3)CC2)c2ccccc2n1-c1ccc(Cl)cc1
tested-on: USP14 (Homo sapiens (Human), UniProt P54578)
IC50: 500 to 5000 nM
//
compound: Cc1c(C(=O)CC2CCCCC2)c2ncccc2n1-c1ccc(C#N)cc1
tested-on: USP14 (Homo sapiens (Human), UniProt P54578)
IC50: > 5000 nM
//
compound: Cc1c(C(=O)CN2CCCCC2)c2ccc(CN3C(=O)c4ccccc4C3=O)cc2n1-c1ccc(Cl)cc1
tested-on: USP14 (Homo sapiens (Human), UniProt P54578)
IC50: 500 to 5000 nM
//
compound: Cc1c(C(=O)CN2CC[C@H](O)[C@H](O)C2)c2ncc(Br)cc2n1-c1ccc(C#N)cc1 [Compound 356]
tested-on: USP14 (Homo sapiens (Human), UniProt P54578)
IC50: < 500 nM
//
compound: COC(CNC(=O)CCc1cnc2c(C(=O)CN3CCCCC3)c(C)n(-c3ccc(C#N)cc3)c2c1)OC
tested-on: USP14 (Homo sapiens (Human), UniProt P54578)
IC50: < 500 nM
//
compound: Cc1c(C(=O)CN2CCC(O)CC2)c2ccccc2n1-c1ccc(C#N)nc1
tested-on: USP14 (Homo sapiens (Human), UniProt P54578)
IC50: 500 to 5000 nM

Give IC50 for each listed item.
1. Cc1c(C(=O)CN2CCC(O)CC2)c2ccccc2n1-c1ncc(Cl)s1
2. Cc1nc2c(C(=O)CN3CCCCC3)c(C)n(-c3ccc(C#N)cc3)c2cc1CCC(=O)O [Compound 202, Hydrochloride Salt]
3. Cc1c(C(=O)CN2C[C@H](C)C[C@@H](C)C2)c2ncc(Br)cc2n1-c1ccc(C#N)cc1

Result block:
1. > 5000 nM
2. < 500 nM
3. > 5000 nM
